Tested on: M19-MEL melanoma
Protocol: NCI tumour cell line growth inhibition, 48 h
Property Measured: TGI

COc1ccc(/C=C/C(=O)c2cc(C(=O)O)c(OC)cc2OC)cc1OC; > 100 µM
Cn1ccnc1CCc1ccc(Cl)cc1Cl; > 100 µM
CN(c1nc(=[N+](C)C)ss1)C1CCCCC1; > 100 µM
CC(C)OC(=O)c1cc(NC(=O)C(C)(C)C)c(F)cc1Cl; > 100 µM
COc1ccc(Cc2nn(C3OC(COC(C)=O)C(OC(C)=O)C(OC(C)=O)C3OC(C)=O)c(=S)n(-c3ccc(OC)cc3)c2=O)cc1 (configuration not stated); > 100 µM
CC(=O)COC(=O)CC(C)=O; > 100 µM
COc1ccc(NC(=O)CC(=O)n2nc(-c3ccccc3)c(N=Nc3ccccc3C(=O)O)c2-c2ccccc2)cc1; > 100 µM
COc1cc2c[n+](C)c3c4cc(OC)c(OC)cc4c(OCCCCCCCCOc4cc5c6cc(OC)c(OC)cc6c[n+](C)c5c5cc(OC)c(OC)cc45)cc3c2cc1OC; > 100 µM
C(=C\c1cc(CCc2nc3ccccc3[nH]2)[nH]n1)/c1ccccc1; > 100 µM
CC(C)[C@@H](C)CC[C@@H](C)C1CC=C2[C@@H]3CCC4C[C@@H](O[Si](C)(C)C(C)(C)C)CC[C@]4(C)C3CC[C@@]21C (some centres not stated); > 100 µM
CCCCCCCCCCCCCCCC(=O)Nc1ccn(C2OC(CO)C(O)C2O)c(=O)n1 (configuration not stated); > 100 µM
CN(C)CCN(C)CCC(=O)/C=C/c1ccccc1; 40.9 µM
C/C=C/C1(C)/C(=N\O)C(C)(CCC)C(=O)N1O (configuration not stated); > 100 µM
C=C[C@]1(C)CC(O)C2C(=C)C(=O)OC2[C@H]1C(=C)C=O (some centres not stated); 7.98 µM
COc1ccc(SS(=O)(=O)c2ccc(OC)cc2)cc1; 46.4 µM
O=C1C(C(Nc2ccccc2)c2ccccc2)=C([O-])c2ccccc21.O=C1C(C(Nc2ccccc2)c2ccccc2)=C([O-])c2ccccc21.[Ni+2] (configuration not stated); > 100 µM
NC(N)=N/N=C(/CCN1CCCC1)CC(c1ccccc1)c1c(O)c2ccccc2oc1=O (configuration not stated); > 100 µM
